From: paper PMC6270800

For each of the molecules below, state its tissue uptake dose at 2 h.
# Assay Details: in vivo
# Condition Summary: female, NMRI, mouse, iv, 45 pmol, total radioactivity, Uptake in GI (with content)
Give bare numbers, in %ID.

# annotated cases, reported tissue uptake dose at 2 h shown
CC(C)C[C@H](NC(=O)C[C@H](O)[C@H](CC(C)C)NC(=O)[C@H](Cc1c[nH]cn1)NC(=O)CNC(=O)[C@@H](NC(=O)[C@H](C)NC(=O)[C@H](Cc1c[nH]c2ccccc12)NC(=O)[C@H](CCC(N)=O)NC(=O)[C@@H](Cc1ccccc1)NC(=O)CCOCCOCCOCCOCCOCCOCCNC(=O)CN1CCN(CC(=O)O)CCN(CC(=O)O)CC1)C(C)C)C(N)=O    1.8
CC(C)C[C@H](NC(=O)C[C@H](O)[C@H](CC(C)C)NC(=O)[C@H](Cc1c[nH]cn1)NC(=O)CNC(=O)[C@@H](NC(=O)[C@H](C)NC(=O)[C@H](Cc1c[nH]c2ccccc12)NC(=O)[C@H](CCC(N)=O)NC(=O)[C@@H](Cc1ccccc1)NC(=O)COCCOCCNC(=O)CN1CCN(CC(=O)O)CCN(CC(=O)O)CC1)C(C)C)C(N)=O    2.88
CC(C)C[C@H](NC(=O)C[C@H](O)[C@H](CC(C)C)NC(=O)[C@H](Cc1c[nH]cn1)NC(=O)CNC(=O)[C@@H](NC(=O)[C@H](C)NC(=O)[C@H](Cc1c[nH]c2ccccc12)NC(=O)[C@H](CCC(N)=O)NC(=O)[C@@H](Cc1ccccc1)NC(=O)CCOCCOCCOCCOCCNC(=O)CN1CCN(CC(=O)O)CCN(CC(=O)O)CC1)C(C)C)C(N)=O    3.1

Field: next molecule
# input Can you share its tissue uptake dose at 2 h? I mean this molecule: "CC(C)C[C@H](NC(=O)C[C@H](O)[C@H](CC(C)C)NC(=O)[C@H](Cc1c[nH]cn1)NC(=O)CNC(=O)[C@@H](NC(=O)[C@H](C)NC(=O)[C@H](Cc1c[nH]c2ccccc12)NC(=O)[C@H](CCC(N)=O)NC(=O)[C@@H](Cc1ccccc1)NC(=O)CCOCCOCCOCCNC(=O)CN1CCN(CC(=O)O)CCN(CC(=O)O)CC1)C(C)C)C(N)=O"
# output 2.5

###

# Assay Details: in vivo
# Condition Summary: female, NMRI, mouse, iv, 45 pmol, total radioactivity, Uptake in carcass
Property: tissue uptake dose at 1 h (%ID)
Numbers only, in %ID.

# annotated cases, reported tissue uptake dose at 1 h shown
CC(C)C[C@H](NC(=O)C[C@H](O)[C@H](CC(C)C)NC(=O)[C@H](Cc1c[nH]cn1)NC(=O)CNC(=O)[C@@H](NC(=O)[C@H](C)NC(=O)[C@H](Cc1c[nH]c2ccccc12)NC(=O)[C@H](CCC(N)=O)NC(=O)[C@@H](Cc1ccccc1)NC(=O)CCOCCOCCOCCOCCNC(=O)CN1CCN(CC(=O)O)CCN(CC(=O)O)CC1)C(C)C)C(N)=O    2.3
CC(C)C[C@H](NC(=O)C[C@H](O)[C@H](CC(C)C)NC(=O)[C@H](Cc1c[nH]cn1)NC(=O)CNC(=O)[C@@H](NC(=O)[C@H](C)NC(=O)[C@H](Cc1c[nH]c2ccccc12)NC(=O)[C@H](CCC(N)=O)NC(=O)[C@@H](Cc1ccccc1)NC(=O)COCCOCCNC(=O)CN1CCN(CC(=O)O)CCN(CC(=O)O)CC1)C(C)C)C(N)=O    4
CC(C)C[C@H](NC(=O)C[C@H](O)[C@H](CC(C)C)NC(=O)[C@H](Cc1c[nH]cn1)NC(=O)CNC(=O)[C@@H](NC(=O)[C@H](C)NC(=O)[C@H](Cc1c[nH]c2ccccc12)NC(=O)[C@H](CCC(N)=O)NC(=O)[C@@H](Cc1ccccc1)NC(=O)CCOCCOCCOCCOCCOCCOCCNC(=O)CN1CCN(CC(=O)O)CCN(CC(=O)O)CC1)C(C)C)C(N)=O    3

# input Can you share its tissue uptake dose at 1 h? I mean this molecule: "CC(C)C[C@H](NC(=O)C[C@H](O)[C@H](CC(C)C)NC(=O)[C@H](Cc1c[nH]cn1)NC(=O)CNC(=O)[C@@H](NC(=O)[C@H](C)NC(=O)[C@H](Cc1c[nH]c2ccccc12)NC(=O)[C@H](CCC(N)=O)NC(=O)[C@@H](Cc1ccccc1)NC(=O)CCOCCOCCOCCNC(=O)CN1CCN(CC(=O)O)CCN(CC(=O)O)CC1)C(C)C)C(N)=O"
# output 2.1

###

# Assay Details: in vivo
# Condition Summary: female, NMRI, mouse, iv, 45 pmol, total radioactivity, Uptake in GI (with content)
Property: tissue uptake dose at 1 h (%ID)
Answers are plain numbers, in %ID.

CC(C)C[C@H](NC(=O)C[C@H](O)[C@H](CC(C)C)NC(=O)[C@H](Cc1c[nH]cn1)NC(=O)CNC(=O)[C@@H](NC(=O)[C@H](C)NC(=O)[C@H](Cc1c[nH]c2ccccc12)NC(=O)[C@H](CCC(N)=O)NC(=O)[C@@H](Cc1ccccc1)NC(=O)CCOCCOCCOCCOCCOCCOCCNC(=O)CN1CCN(CC(=O)O)CCN(CC(=O)O)CC1)C(C)C)C(N)=O    2.8
CC(C)C[C@H](NC(=O)C[C@H](O)[C@H](CC(C)C)NC(=O)[C@H](Cc1c[nH]cn1)NC(=O)CNC(=O)[C@@H](NC(=O)[C@H](C)NC(=O)[C@H](Cc1c[nH]c2ccccc12)NC(=O)[C@H](CCC(N)=O)NC(=O)[C@@H](Cc1ccccc1)NC(=O)CCOCCOCCOCCOCCNC(=O)CN1CCN(CC(=O)O)CCN(CC(=O)O)CC1)C(C)C)C(N)=O    3.5
CC(C)C[C@H](NC(=O)C[C@H](O)[C@H](CC(C)C)NC(=O)[C@H](Cc1c[nH]cn1)NC(=O)CNC(=O)[C@@H](NC(=O)[C@H](C)NC(=O)[C@H](Cc1c[nH]c2ccccc12)NC(=O)[C@H](CCC(N)=O)NC(=O)[C@@H](Cc1ccccc1)NC(=O)CCOCCOCCOCCNC(=O)CN1CCN(CC(=O)O)CCN(CC(=O)O)CC1)C(C)C)C(N)=O    3.7

Field: next compound
# input Can you share its tissue uptake dose at 1 h? I mean this compound: "CC(C)C[C@H](NC(=O)C[C@H](O)[C@H](CC(C)C)NC(=O)[C@H](Cc1c[nH]cn1)NC(=O)CNC(=O)[C@@H](NC(=O)[C@H](C)NC(=O)[C@H](Cc1c[nH]c2ccccc12)NC(=O)[C@H](CCC(N)=O)NC(=O)[C@@H](Cc1ccccc1)NC(=O)COCCOCCNC(=O)CN1CCN(CC(=O)O)CCN(CC(=O)O)CC1)C(C)C)C(N)=O"
# output 4
